Biological target: T1, human Activin A (R&D Systems) (human, UniProt P08476 311-426)
T1 sequence (looked up): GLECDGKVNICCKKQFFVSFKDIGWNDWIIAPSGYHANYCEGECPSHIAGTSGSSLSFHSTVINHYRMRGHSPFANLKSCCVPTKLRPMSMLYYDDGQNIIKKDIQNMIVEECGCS
Test: cell-based or functional assay
Quantity measured: ARE-luciferase IC50 (nM)

2987_D05 (designed binder) MGVSDVPRDLEVVAATPTSLLISWSLPHAGHAHYYRITYGETGGNSPVQEFTVPGRGVTATISGLKPGVDYTITVYAVTLTRSKIIHYMPISINYRTEIDKPSQHHHHHH; 2000
3116_C01 (designed binder) MGVSDVPRDLEVVAATPTSLLISWSLPNPGIAHYYRITYGETGGNSPVQEFTVPGRGVTATISGLKPGVDYTITVYAVTLTGSDTIFYKPISINYRTEIDKPSQHHHHHH; 1000
2987_E08 (designed binder) MGVSDVPRDLEVVAATPTSLLISWTLPHAGRAHYYRITYGETGGNSPVQEFTVPGRGVTATISGLKPGVDYTITVYAVTVSSTKVIHYKPISINYRTEIDKPSQHHHHHH; 352
3007_B08 (designed binder) MGVSDVPRDLEVVAATPTSLLISWSLPTPGLAHYYRITYGETGGNSPVQEFTVPGRGVTATISGLKPGVDYTITVYAVTVTHHGVIGYKPISINYRTEIDKPSQHHHHHH; 423
2987_F01 (designed binder) MGVSDVPRDLEVVAATPTSLLISWSLPYAGHAHYYRITYGETGGNSPVQEFTVPGRGVTATISGLKPGVDYTITVYAVTLTRSKIIHYMPISINYRTEIDKPSQHHHHHH; 594
3008_B08 (designed binder) MGVSDVPRDLEVVAATPTSLLISWSLPHAGDAHYYRITYGETGGNSPVQEFTVPGRGVTATISGLKPGVDYTITVYAVTVTRAGFYRYKPISINYRTEIDKPSQHHHHHH; 254
2987_E03 (designed binder) MGVSDVPRDLEVVAATPTSLLISWSLPYPGHLNYYRITYGETGGNSPVQEFTVPGRGVTATISGLKPGVDYTITVYAVTLTRSKIIHYMPISINYRTEIDKPSQHHHHHH; 224
